- measurementDescription: in vivo
- recordedConditions: CD-1, mouse, po, 50 mg/kg
Square brackets hold non-standard residues; d marks the D form. Peptide text beside a SMILES is read from it. Aib = CC(C)(N)C(=O)O
assayMetric: Cmax

Enquiry: In one line, give reported Cmax of the entry CC(C)(NC(=O)[C@H](N)Cc1c[nH]c2ccccc12)C(=O)O [D-Trp-Aib] (H-[dW]-[Aib]-OH) .
Return: 9.81 µg/mL

###

- measurementDescription: in vivo
- recordedConditions: CD-1, mouse, inhaled or intranasal, 20 mg/kg
Square brackets hold non-standard residues; d marks the D form. Peptide text beside a SMILES is read from it. Aib = CC(C)(N)C(=O)O
assayMetric: MRT (min)
Write the value in min as a bare number.

Enquiry: In one line, give reported MRT of the entry CC(C)(NC(=O)[C@H](N)Cc1c[nH]c2ccccc12)C(=O)O [D-Trp-Aib] (H-[dW]-[Aib]-OH) .
Return: 58.8
